# System: Calf thymus DNA
# Experimental protocol: Binding affinity to calf thymus DNA in 0.15 M NaCl-0.01 M sodium phosphate buffer at pH 7.3 at 37 degC incubated for 5 mins
# Type: nucleic-acid assay
# Measurement setup: Bos taurus
Calls of active or inactive are those of the source. The rule behind the calls is not given here.

{"Item smiles": "Cc1ccc(C(=O)N[C@@H]2C(=O)N[C@H](C(C)C)C(=O)N3CCC[C@H]3C(=O)N(C)CC(=O)N(C)[C@@H](C(C)C)C(=O)O[C@@H]2C)c2c1Oc1c(c(C(=O)N[C@@H]3C(=O)N[C@H](C(C)C)C(=O)N4CCC[C@H]4C(=O)N(C)CC(=O)N(C)[C@@H](C(C)C)C(=O)O[C@@H]3C)c3nc(C)c(=O)oc3c1C)N2", "Activity": "inactive"}
{"Item smiles": "Cc1ccc(C(=O)N[C@@H]2C(=O)N[C@H](C(C)C)C(=O)N3CCC[C@H]3C(=O)N(C)CC(=O)N(C)[C@@H](C(C)C)C(=O)O[C@@H]2C)c2c1Oc1c(c(C(=O)N[C@@H]3C(=O)N[C@H](C(C)C)C(=O)N4CCC[C@H]4C(=O)N(C)CC(=O)N(C)[C@@H](C(C)C)C(=O)O[C@@H]3C)c3ncc(=O)oc3c1C)N2", "Activity": "inactive"}
{"Item smiles": "CCc1nc2c(C(=O)N[C@@H]3C(=O)N[C@H](C(C)C)C(=O)N4CCC[C@H]4C(=O)N(C)CC(=O)N(C)[C@@H](C(C)C)C(=O)O[C@@H]3C)c3c(c(C)c2oc1=O)Oc1c(C)ccc(C(=O)N[C@@H]2C(=O)N[C@H](C(C)C)C(=O)N4CCC[C@H]4C(=O)N(C)CC(=O)N(C)[C@@H](C(C)C)C(=O)O[C@@H]2C)c1N3", "Activity": "inactive"}
